# key: entry, value: pIC50
target_desc: T1, human C5 protein (human, UniProt P01031 19-673; P01031 678-1676)
T1 construct: Natural C5 is made from one precursor and circulates as two disulfide-linked chains; also called complement component C5; purified human C5
protocol_summary: competitive fluorescence polarization vs probe R3076, Exp 1
Method: Test articles listed in Table 7 were subsequently diluted in DMSO then assay buffer, comprising 10 2-fold dilutions and were then added to the assay plate in triplicate, rapidly. The assay plate was then incubated in the Paradigm (Molecular Devices, Sunnyvale, Calif.) plate reader for 60 minutes at 25° C. After incubation for 60 minutes, the plate was read using the Paradigm FP protocol (Molecular Devices, Sunnyvale, Calif.) and raw polarization values were imported into Graphpad Prism.
Starred links: 1 amine or outer side, 2 acyl side, 3 side chain; linkers in the order of their positions; H or OH if unused. Positions of bridges follow the written chain, without caps; N, C: chain ends. Non-standard residues stand in square brackets, D forms with d. No end group written: not given here. mXylyl = bridging moiety between residues (mXylyl(i,j)); Trp(7-aza) = N[C@@H](Cc1c[nH]c2ncccc12)C(=O)O; pXylylene = c1cc(C[*:2])ccc1C[*:1]; Phg = N[C@H](C(=O)O)c1ccccc1; Tle = CC(C)(C)[C@H](N)C(=O)O; NMeS = CN[C@@H](CO)C(=O)O; Nva = CCC[C@H](N)C(=O)O
// scale note: pIC50 = -log10(conc_M); give the bare number

The examples below pair each entry with its known result.
binder	test_value
MCVERFCDVYWE-NH2 (linker 2-7 via mXylyl) [R3043]	5.36
Ac-[Nva]C[Phg]T[Trp(7-aza)]EY[NMeS]HC[Nva]P-NH2 (linker 2-10 via mXylyl) [R3011]	6.53
Ac-[Nva]C[Phg]T[Trp(7-aza)]EY[NMeS]HC[Nva]-NH2 (linker 2-10 via pXylylene) [R3050]	6.57
Ac-[Nva]CYEN[Tle]Y[Trp(7-aza)]EYP[Phg]P-NH2 (SMILES CCC[C@H](NC(C)=O)C(=O)N[C@@H](CS)C(=O)N[C@@H](Cc1ccc(O)cc1)C(=O)N[C@@H](CCC(=O)O)C(=O)N[C@@H](CC(N)=O)C(=O)N[C@H](C(=O)N[C@@H](Cc1ccc(O)cc1)C(=O)N[C@@H](Cc1c[nH]c2ncccc12)C(=O)N[C@@H](CCC(=O)O)C(=O)N[C@@H](Cc1ccc(O)cc1)C(=O)N1CCC[C@H]1C(=O)N[C@H](C(=O)N1CCC[C@H]1C(N)=O)c1ccccc1)C(C)(C)C) [R3003]	7.14

# pIC50 (binder: Ac-C[Phg]T[Trp(7-aza)]EY[NMeS]HC[Nva]P[Nva]-NH2 (linker 1-9 via mXylyl) [R3014] ) is 5.22

The origin of these recorded values is patent US11535650.
